System: T1, recombinant human LAG3 expressed with a C-terminal myc-myc-hexahistidine tag (human, UniProt P18627 29-450)
T1 construct: also called hLAG3-mmh; hLAG3.mmh
T1 sequence (P18627 other isoform, or with tags, fused parts or gaps limits assumed): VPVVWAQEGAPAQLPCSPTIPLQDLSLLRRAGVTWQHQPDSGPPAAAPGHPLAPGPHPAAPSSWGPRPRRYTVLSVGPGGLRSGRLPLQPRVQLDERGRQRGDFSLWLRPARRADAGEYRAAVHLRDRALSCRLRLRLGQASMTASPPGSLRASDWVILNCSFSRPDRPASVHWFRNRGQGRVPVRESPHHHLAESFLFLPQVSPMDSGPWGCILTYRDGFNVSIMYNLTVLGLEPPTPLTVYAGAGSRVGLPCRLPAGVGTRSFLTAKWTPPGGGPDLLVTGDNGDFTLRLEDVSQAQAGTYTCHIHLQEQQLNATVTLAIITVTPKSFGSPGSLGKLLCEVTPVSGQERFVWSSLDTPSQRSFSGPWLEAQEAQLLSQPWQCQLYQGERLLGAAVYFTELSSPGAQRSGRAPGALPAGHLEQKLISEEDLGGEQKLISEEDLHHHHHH
Experimental Protocol: SPR, mAb captured, 25 C
# maps each entry to its kon
Field: numeric (M⁻¹ s⁻¹). Do not append units.

Recorded kon of H4H17819P (antibody, human IgG4, V domains shown, H4H = human IgG4 Fc with S108P hinge mutation) VH: EVQLVESGGGLVQPGGSLRLSCVASGFTFSLYAMTWVRQVPGKGLEWVSTISGSGGGTYYTDSVKGRFTISRDNSKNTLYLQMNSLRADDTAVFYCTKESTTGTYSYFYGMDVWGQGTTVTVSS VL: DIQMTQSPSSLSASVGDRVTITCRASQTISSYLNWYQQKPGKAPKLLIYAASSLQSGVPSRFSGSGSGTDFTLTLSGLQPEDFATYYCQQSYSTPLTFGGGTKVEIK , please.
1.13e+06

Recorded kon of H4H14813N (antibody, human IgG4, V domains shown, H4H = human IgG4 Fc with S108P hinge mutation) VH: QVQLQQWGAGLLKPSETLSLTCAVYGGSFSGYYWNWIRQPPGKGLEWVGEISHRGSTNYNPSLKSRVTISLDTSKNQFSLKLTSVTAADTAVYYCSRDEELEFRFFDYWGQGTLVTVSS VL: EIVLTQSPATLSLSPGERATLSCRASQSVSSYLAWYQQKPGQAPRLLVYGASNRATGIPARFSGSGSGTDFTLTISSLEPEDFAFYYCQQRSNWPLTFGGGTKVEIK , please.
411000

Recorded kon of H4H15479P (antibody, human IgG4, V domains shown) VH: QVQLQQWGAGLLNPSETLSLTCAVYGGAFSDYYWNWIRQPPGKGLEWIGEINHRGSTNYNPSLKSRVTISVDTSKNQFSLRMSSVTAADAAVYYCARGEDYDIWNGYYQEKWGQGTLVTVSS VL: EIVLTQSPATLSLSPGERATLSCRASQSISTYLAWYQQKPGQAPRLLIYDASKRATGIPARFSGSGSGTDFTLTISSLEPEDFVVYYCHQRSNWPLTFGGGTKVEIK , please.
1.09e+06

Below: the item to evaluate.
Recorded kon of H4H17823P (antibody, human IgG4, V domains shown, H4H = human IgG4 Fc with S108P hinge mutation) VH: EVQLLESGGGLVQPGGSLRLSCAASGFTFRSYAMSWVRQAPGKGLEWVSVISGGGGRTYYTDSVKGRFTISRDNSKSMLYLQMNSLRAEDTAIYYCAKERVTGIDHYYYGVDVWGQGTTVTVSS VL: DIQMTQSPSSLSASVGDRVTITCRASQSISSYLNWYQQKPGKAPKLLIYATSSLQSGVPSRFSGSASGTDFTLAISSLQPEDFATYYCQQSYTTPLTFGGGTKVEIK , please.
1.04e+06
